- target-of-assay: VEGF2 (Homo sapiens, UniProt P35968)
- Sequence (P35968 20-1356): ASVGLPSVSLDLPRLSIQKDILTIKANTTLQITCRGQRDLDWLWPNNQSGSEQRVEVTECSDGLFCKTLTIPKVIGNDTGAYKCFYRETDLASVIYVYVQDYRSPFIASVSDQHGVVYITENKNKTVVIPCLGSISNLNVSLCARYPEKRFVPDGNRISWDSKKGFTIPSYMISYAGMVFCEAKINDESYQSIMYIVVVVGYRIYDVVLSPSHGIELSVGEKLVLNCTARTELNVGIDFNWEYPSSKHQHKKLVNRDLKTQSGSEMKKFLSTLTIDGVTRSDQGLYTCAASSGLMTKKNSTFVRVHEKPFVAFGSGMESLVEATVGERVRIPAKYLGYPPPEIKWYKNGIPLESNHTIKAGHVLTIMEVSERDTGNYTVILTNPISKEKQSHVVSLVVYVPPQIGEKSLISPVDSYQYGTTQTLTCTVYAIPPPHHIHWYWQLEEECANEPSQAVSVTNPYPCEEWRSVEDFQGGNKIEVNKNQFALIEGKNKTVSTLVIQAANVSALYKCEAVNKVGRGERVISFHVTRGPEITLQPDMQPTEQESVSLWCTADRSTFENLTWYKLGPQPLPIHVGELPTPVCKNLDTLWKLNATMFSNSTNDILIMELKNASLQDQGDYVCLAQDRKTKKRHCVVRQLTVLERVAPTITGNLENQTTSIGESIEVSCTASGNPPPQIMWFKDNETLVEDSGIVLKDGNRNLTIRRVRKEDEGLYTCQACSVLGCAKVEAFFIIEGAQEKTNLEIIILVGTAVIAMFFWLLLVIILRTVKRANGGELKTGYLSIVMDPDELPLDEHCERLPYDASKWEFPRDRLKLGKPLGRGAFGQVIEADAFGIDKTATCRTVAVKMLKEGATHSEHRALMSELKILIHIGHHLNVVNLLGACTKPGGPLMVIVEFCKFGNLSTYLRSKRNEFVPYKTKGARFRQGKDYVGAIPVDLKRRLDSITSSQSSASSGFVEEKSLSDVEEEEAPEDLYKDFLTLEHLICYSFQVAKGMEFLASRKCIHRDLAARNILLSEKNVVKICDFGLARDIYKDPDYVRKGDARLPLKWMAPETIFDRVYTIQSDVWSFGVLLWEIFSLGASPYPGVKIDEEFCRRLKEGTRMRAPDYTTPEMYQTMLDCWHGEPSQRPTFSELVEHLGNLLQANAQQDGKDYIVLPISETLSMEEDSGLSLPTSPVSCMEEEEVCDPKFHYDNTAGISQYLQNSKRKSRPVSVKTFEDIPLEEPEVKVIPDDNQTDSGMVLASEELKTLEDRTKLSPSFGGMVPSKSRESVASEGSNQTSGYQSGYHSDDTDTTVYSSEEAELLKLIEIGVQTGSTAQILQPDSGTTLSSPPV
- test-method-notes: SelectScreen Profiling, Z'-LYTE kinase assay, VEGF2
- Format: biochemical
- run-parameters: 1 μM compound, ATP at Km, read-out: VEGF 2 inh % @1 μM
value-kind: inhibition at 1 µM (%)
Give bare numbers, in %.

Lab note: each molecule below needs its inhibition at 1 µM filled in.
1. CN1CCCN(C(=O)c2ccc(NC(=O)Nc3ccc(-c4nc(N5CCOCC5)c5cccn5n4)cc3)cc2)CC1 [Example 59]
2. CN(C)C1CCN(C(=O)c2ccc(NC(=O)Nc3ccc(-c4nc(N5CCOCC5)c5cccn5n4)cc3)cc2)CC1 [Example 15]
3. CN(C)CCCNC(=O)c1ccc(NC(=O)Nc2ccc(-c3nc(N4CCOCC4)c4cccn4n3)cc2)cc1 [Example 47]
4. CN(C)CCNC(=O)c1ccc(NC(=O)Nc2ccc(-c3nc(N4CCOCC4)c4cccn4n3)cc2)cc1 [Example 45]
5. CN1CCN(C(=O)c2ccc(NC(=O)Nc3ccc(-c4nc(N5CCOCC5)c5cccn5n4)cc3)cc2)CC1 [Example 46]
6. O=C(Nc1ccc(C(=O)N2CC(O)C2)cc1)Nc1ccc(-c2nc(N3CCOCC3)c3cccn3n2)cc1 [Example 54]
7. CN(C)[C@@H]1CCN(C(=O)c2ccc(NC(=O)Nc3ccc(-c4nc(N5CCOCC5)c5cccn5n4)cc3)cc2)C1 [Example 58]

Key:
[10, 8, 10, 10, 11, 7, 10]

I would be grateful if you could provide inhibition at 1 µM for each of the following entries.
1. O=C(Nc1ccc(C(=O)N2CCC(O)CC2)cc1)Nc1ccc(-c2nc(N3CCOCC3)c3cccn3n2)cc1 [Example 55]
2. CC(C)(C)C(=O)OCCNC(=O)Nc1ccc(-c2nc(N3C[C@H]4CC[C@@H](C3)O4)c3cccn3n2)cc1 [Example 133]

Key:
1: 11; 2: 9

###

- target-of-assay: mTOR (FRAP1) (Homo sapiens, UniProt P42345)
- test-method-notes: SelectScreen Profiling, Z'-LYTE kinase assay, mTOR (FRAP1)
- Type: biochemical
- run-parameters: 0.1 μM compound, ATP at Km, read-out: mTOR inh% @0.1 μM
Task for the reader: assign each of the following molecules its reported inhibition at 0.1 µM.
Numbers only, in %.

Here's what some known entries look like.
smiles_repr=CN(C)CCCNC(=O)c1ccc(NC(=O)Nc2ccc(-c3nc(N4CCOCC4)c4cccn4n3)cc2)cc1 measurement_unit=% measured_number=89
smiles_repr=CN1CCN(C(=O)c2ccc(NC(=O)Nc3ccc(-c4nc(N5CCOCC5)c5ccc(C(F)(F)F)n5n4)cc3)cc2)CC1 measurement_unit=% measured_number=63
smiles_repr=CNC(=O)c1ccc(NC(=O)Nc2ccc(-c3nc(N4CCOCC4)c4cccn4n3)cc2)cc1F measurement_unit=% measured_number=71

// for each molecule below, give its inhibition at 0.1 µM
1. O=C(NCCO)Nc1ccc(-c2nc(N3CCOCC3)c3cccn3n2)cc1
2. O=C(Nc1ccc(C(=O)N2CC[C@H](O)C2)cc1)Nc1ccc(-c2nc(N3CCOCC3)c3cccn3n2)cc1

Key:
[94, 86]

###

- test-method-notes: Metabolic stability in human liver microsome (HLM)
- Assay type: in vitro ADME
- run-parameters: incubation with human liver microsome for 60 min
value-kind: metabolic stability in HLM

Consider the following illustrative entries.
molecule="O=C(Nc1ccc(C(=O)N2CCNCC2)cc1)Nc1ccc(-c2nc(N3CCOCC3)c3cccn3n2)cc1 [Example 56]" value_kind="metabolic stability in HLM" result="metabolically stable"
molecule="OCCNC(=S)Nc1ccc(-c2nc(N3C[C@H]4CC[C@@H](C3)O4)c3cccn3n2)cc1 [Example 122]" value_kind="metabolic stability in HLM" result="metabolically stable"
molecule="O=C(Nc1ccc(C(=O)N2CC[C@@H](O)C2)cc1)Nc1ccc(-c2nc(N3CCOCC3)c3cccn3n2)cc1 [Example 67]" value_kind="metabolic stability in HLM" result="metabolically stable"
molecule="O=C(Nc1ccc(-c2nc(N3CCOCC3)c3cccn3n2)cc1)Nc1cccnc1 [Example 14]" value_kind="metabolic stability in HLM" result="metabolically stable"
molecule="CN(C)C1CCN(C(=O)c2ccc(NC(=O)Nc3ccc(-c4nc(N5CCOCC5)c5ccc(C(F)(F)F)n5n4)cc3)cc2)CC1 [Example 64]" value_kind="metabolic stability in HLM" result="metabolically stable"

# return metabolic stability in HLM for each item in the list
1. CN1CCN(C(=O)c2ccc(NC(=O)Nc3ccc(-c4nc(N5CCOCC5)c5cccn5n4)cc3)cc2)CC1 [Example 46]
2. CN(C)C1CCN(C(=O)c2ccc(NC(=O)Nc3ccc(-c4nc(N5CCOCC5)c5cccn5n4)cc3)cc2)CC1 [Example 15]

Key:
1: metabolically stable; 2: metabolically stable

FYI, the data here is from patent US11242346B2.
